- TGT: human TLR8 (Homo sapiens (Human), UniProt Q9NR97)
- Sequence (Q9NR97 27-1041): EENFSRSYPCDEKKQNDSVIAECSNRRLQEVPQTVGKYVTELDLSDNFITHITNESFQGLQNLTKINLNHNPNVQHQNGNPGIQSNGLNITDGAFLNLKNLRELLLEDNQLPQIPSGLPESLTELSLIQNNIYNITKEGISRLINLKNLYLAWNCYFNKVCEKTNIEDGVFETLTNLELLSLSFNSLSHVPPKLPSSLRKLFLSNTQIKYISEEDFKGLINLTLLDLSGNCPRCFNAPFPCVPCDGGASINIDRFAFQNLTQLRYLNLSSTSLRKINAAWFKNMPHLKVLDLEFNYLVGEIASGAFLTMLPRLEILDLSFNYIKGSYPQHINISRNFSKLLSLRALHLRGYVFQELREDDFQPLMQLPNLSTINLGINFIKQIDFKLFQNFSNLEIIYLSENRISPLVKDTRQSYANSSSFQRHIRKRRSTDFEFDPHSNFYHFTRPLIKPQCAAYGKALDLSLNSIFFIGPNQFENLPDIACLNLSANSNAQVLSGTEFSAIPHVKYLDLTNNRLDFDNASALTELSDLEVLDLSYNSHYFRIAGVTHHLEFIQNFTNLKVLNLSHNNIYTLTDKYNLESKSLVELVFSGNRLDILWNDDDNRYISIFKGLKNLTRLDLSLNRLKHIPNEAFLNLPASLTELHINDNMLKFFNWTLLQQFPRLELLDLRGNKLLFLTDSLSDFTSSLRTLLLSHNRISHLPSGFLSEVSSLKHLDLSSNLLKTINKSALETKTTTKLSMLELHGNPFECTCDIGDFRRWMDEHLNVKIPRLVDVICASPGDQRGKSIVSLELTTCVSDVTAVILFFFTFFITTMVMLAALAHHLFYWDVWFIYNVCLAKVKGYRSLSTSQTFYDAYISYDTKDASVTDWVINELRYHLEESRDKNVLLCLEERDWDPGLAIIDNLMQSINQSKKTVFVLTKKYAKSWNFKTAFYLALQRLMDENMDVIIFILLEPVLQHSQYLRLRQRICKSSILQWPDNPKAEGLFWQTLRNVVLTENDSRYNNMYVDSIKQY
- TEST_DETAILS: TLR8 inhibition reporter assay (HEK-Blue SEAP);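 also: SEAP driven by IFN-β minimal promoter carrying NF-κB and AP-1 sites, compounds dosed 0.05 nM to 50 µM for 22 h, inhibition scaled between agonist-plus-DMSO and reference-inhibitor wells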
- APPLIED_CONDITIONS: read-out: TLR8 IC50; HEK-Blue cells overexpressing human TLR8, SEAP reporter, R848 15.9 μM
pIC50: −log10 of the molar value.
OBSERVABLE: pIC50

# example entries with known answers
Cc1c(-c2[nH]c3ccc(C4CCC5(CC4)CN(C(C)C)C5)nc3c2C(C)C)cn2ncnc2c1C [Example 493]	5.42
COc1cc(-c2[nH]c3ccc(C4CC(N(C)C(=O)CN(C)C)C4)nc3c2C(C)C)cn2ncnc12 (stereo not shown) [Example 625]	8.00
CCCN1CCC(c2ccc3[nH]c(-c4cn(C)c(=O)c(Cl)c4C)c(C(C)C)c3n2)CC1 [Example 568]	8.42
CNC(=O)CN1CCC(c2ccc3[nH]c(-c4cn(C)c(=O)c(C)c4C)c(C(C)C)c3n2)CC1 [Example 544]	8.19
CC(C)c1c(-c2cn(C)c3ncccc23)[nH]c2ccc(CCC3CN(Cc4c[nH]nn4)C3)nc12 [Example 704]	7.89

1 = COc1cc(-c2[nH]c3ccc(C4CCN(CC(C)(C)O)CC4)nc3c2C(C)C)cn2ncnc12 [Example 548]
2 = CC(C)c1c(-c2cn(C)c3ncccc23)[nH]c2ccc(CCC3CN(CC(=O)N(C)C)C3)nc12 [Example 683]
Request: Lab notebook, comparison: 1 versus 2 , higher pIC50 goes to which? # answer = label of selected item
Result: 1
